- Test system: Plasmodium falciparum
- assay_name: GSK_TCMDC: Inhibition of Plasmodium falciparum Dd2 in whole red blood cells, using parasite LDH activity as an index of growth. Test compounds present at 2uM
- Assay type: functional
Decision: Inhibition compared against 60%; not below it gives MET, below it gives NOT MET.

Illustrative cases are given below, each with its answer.
Check if Inhibition >= 60% (inclusive). Item: `O=C(Nc1ccc(Cl)cc1C(=O)Nc1cccc(F)c1)c1ccc([N+](=O)[O-])cc1`
NOT MET

Check if Inhibition >= 60% (inclusive). Item: `O=C(NCCNc1ccnc(Nc2ccc(F)cc2)n1)Nc1ccccc1F`
NOT MET

More entries:
Check if Inhibition >= 60% (inclusive). Item: O=C(Nc1ccc(C(F)(F)F)cc1)c1ccc(S(=O)(=O)NCC2CCCN(CC3CCCCC3)C2)cc1.O=C(O)C(F)(F)F (centres undefined)
NOT MET

Check if Inhibition >= 60% (inclusive). Item: `Cc1ccc(-c2nc(NC(=O)Nc3ccc(C(F)(F)F)cc3)sc2C)cc1Cl`
MET

Check if Inhibition >= 60% (inclusive). Item: `O=C(Nc1ccc(Cl)cc1)c1ccc(CN2CCCN(Cc3ccc(F)cc3)CC2)cc1.O=C(O)C(F)(F)F`
NOT MET

Check if Inhibition >= 60% (inclusive). Item: `Cc1ccc(Oc2ncccc2C(=O)Nc2cccc3cccnc23)c(C)c1`
MET

Check if Inhibition >= 60% (inclusive). Item: O=C(NC1CCCCC1)C(c1cccs1)N(CCc1ccccc1)C(=O)c1ccco1 (centres undefined)
MET

Check if Inhibition >= 60% (inclusive). Item: `CCCn1c(Sc2ccc(C#N)c([N+](=O)[O-])c2)nnc1-c1ccc(OC)cc1`
MET

Check if Inhibition >= 60% (inclusive). Item: `Cc1ccccc1Oc1nc2ccccc2nc1SCC(=O)NC(C)C`
NOT MET
